Biological target: ATP-binding cassette sub-family B member 6 (Homo sapiens)
Experiment: blockers of ABCB6-driven porphyrin uptake – K562-ABCB6 cells, flow cytometry, validation set, pilot screen (AID 588550);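 note: 0% = DMSO wells and 100% = benzethonium chloride 70 µM positive control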
Settings: K562-ABCB6 porphyrin accumulation, 1 h, at 10 µM, stronger effect = higher value
EXPERIMENTAL READOUT: inhibition (%)
Report only the number, with the unit % understood.

Need inhibition, item O=C(NC(Nc1ccccn1)C(Cl)(Cl)Cl)c1ccccc1 (configuration not stated)
-8

Returns the measured inhibition for the input compound. Input: O=C(c1cccnc1)N1N=C(C2CC2)CC1(O)C(F)(F)F (configuration not stated)
10

Consider the compound CN(C)CCOC(=O)C(c1ccccc1)C1(O)CCCC1 (configuration not stated) and give its measured inhibition.
14

Give the measured inhibition of `O=C(O)/C=C/c1cnc[nH]1` .
10

I am curious: what inhibition value has been reported for `Cc1oc2c(O)c(O)ccc2c(=O)c1-c1ccccc1` ?
9

---
So what does the record say about inhibition for `O=C(NCCO)c1ccc(Cl)c(Cl)c1` ?
9

Request the reported inhibition associated with `C[C@]12CC[C@@H]3c4ccc(O)cc4C(=O)C[C@H]3[C@@H]1CC[C@@H]2O`
0

Looking for the measured inhibition of COc1ccc(N2C(=O)C3C(C2=O)C(C(=O)c2ccccc2)N2CCCC32)cc1 (configuration not stated) , can you help?
-7

Give its inhibition value. Item: `COCCN(CCOC)Cc1c(C)[nH]c2c(C)c(C)ccc2c1=O`
-9

Would you mind telling me what inhibition value was observed for O=C1CC(c2ccc(O)cc2)Oc2cc(O)cc(O)c21 (configuration not stated) ?
9

So what's the measured inhibition for this one? CC12CCC(C(=O)NCc3ccc4c(c3)OCO4)(CC1=O)C2(C)C (configuration not stated)
6

Fill blank: measured inhibition of the compound CCn1cc(CN2N=C(C)CC2c2ccccc2)c(C)n1 (configuration not stated) is ____.
3

---

Biological target: Beta-2 adrenergic receptor (Homo sapiens) (UniProt P07550)
Sequence (P07550 whole entry, looked up): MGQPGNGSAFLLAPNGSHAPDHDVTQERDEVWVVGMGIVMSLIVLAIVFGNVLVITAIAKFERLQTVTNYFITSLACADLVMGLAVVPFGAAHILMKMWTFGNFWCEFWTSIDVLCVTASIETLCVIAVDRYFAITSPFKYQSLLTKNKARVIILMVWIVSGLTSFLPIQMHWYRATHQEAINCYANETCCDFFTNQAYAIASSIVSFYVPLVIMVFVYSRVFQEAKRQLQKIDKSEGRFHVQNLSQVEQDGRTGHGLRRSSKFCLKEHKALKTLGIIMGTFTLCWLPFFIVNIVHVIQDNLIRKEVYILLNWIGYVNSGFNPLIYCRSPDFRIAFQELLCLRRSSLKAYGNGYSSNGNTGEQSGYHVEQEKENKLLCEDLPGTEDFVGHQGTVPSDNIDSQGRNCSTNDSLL
Test: agonist-induced loss of surface beta2AR – cell-based, FAP fluorogen, flow cytometry, validation set, pilot screen (AID 504459);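 note: agonist-driven loss of surface beta2AR via internalization measured by FAP dye flow cytometry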
Conditions: Am2.2-beta2AR cells, at 10 µM, stronger effect = higher value
EXPERIMENTAL READOUT: response (%)
Return type: number; implicit unit %.

Record excerpt, results attached:
Reported response, compound CC(C(=O)O)c1cccc(C(=O)c2ccccc2)c1 (stereo unspecified) : ____
6.64

response lookup needed for O=C(NCCC(c1ccccc1)c1ccco1)c1cccs1 (stereo unspecified) , thanks.
-13.3

Recorded response of `O=C(NC1CCCCC1)c1cc2nc(-c3ccco3)cc(C(F)(F)F)n2n1` , please.
-19.4

New cases:
Requested read-out: response. Entry: `O=C(CCSc1ccccc1)N1CCCC1`
-4.18

Give its response value. Item: `CC1CCN(C(=O)Oc2ccccc2)CC1`
0.66

Value lookup for response; key = `CC(=O)OCC(=O)[C@H]1CC[C@H]2[C@@H]3CCC4=CC(=O)CC[C@]4(C)[C@H]3CC[C@]12C`
-16.7

---

Target: GTPase HRas (Homo sapiens) (UniProt P01112)
Sequence (P01112 whole entry, looked up): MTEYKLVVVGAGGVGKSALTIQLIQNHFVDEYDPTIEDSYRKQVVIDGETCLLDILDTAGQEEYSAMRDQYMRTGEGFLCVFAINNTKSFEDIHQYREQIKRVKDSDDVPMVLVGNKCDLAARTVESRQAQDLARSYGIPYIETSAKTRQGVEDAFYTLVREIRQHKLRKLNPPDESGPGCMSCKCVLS
Test: Ras wt fluorescent GTP loading blockade – biochemical, wildtype, multiplex bead flow cytometry, dose response (AID 1335)
Conditions: bead-based flow cytometry, Bodipy-GTP binding to GST-Ras; at 100 µM (top of the series) unless noted
GTP binding, percent of control vs 70%: less than gives Satisfied; not less than gives Not satisfied.

Does the reported GTP binding, percent of control of `COc1ccccc1N1CCN(S(=O)(=O)c2cccc(F)c2)CC1` stay below 70%?
Satisfied

In the record for `Cc1cc(OCCn2cc(C(=O)O)c3ccccc32)ccc1Cl` , is GTP binding, percent of control less than 70%?
Not satisfied

For this compound, is GTP binding, percent of control lower than 70%? Cn1c(=O)c2c(ncn2CC(O)CNc2cccc(Cl)c2)n(C)c1=O (stereo unspecified)
Not satisfied

# strict comparison: is reported GTP binding, percent of control < 70%? input = `Cc1nc(-c2ccccc2)sc1C(=O)NN`
Not satisfied

---

Molecular target: GTPase HRas (Homo sapiens)
Assay: Ras wt fluorescent GTP loading blockade – biochemical, wildtype, multiplex bead flow cytometry, dose response (AID 1335)
Conditions: bead-based flow cytometry, Bodipy-GTP binding to GST-Ras; at 100 µM (top of the series) unless noted
Item-by-item account of GTP binding, percent of control
I only need the number, in %, no unit after it.

Query (compound): `O=C(O)c1ccccc1Sc1ncnc2sc3c(c12)CCC3` ; field requested: GTP binding, percent of control
118

Would you kindly share the measured GTP binding, percent of control for `C/C(=N\NC(=O)c1c[nH]c2ccccc12)c1ccc(C)o1` ?
68.2

# lookup: GTP binding, percent of control of `COc1cc(/C=N/NC(=S)Nc2cccnc2)cc(OC)c1O`
72

Fill in the blank: the reported GTP binding, percent of control of `O=C(CNC(=O)Cc1ccccc1)N=Nc1c(O)n(Cc2ccc3c(c2)OCO3)c2ccccc12` is ____.
48.5

Others:
Dear colleague, I am looking for the recorded GTP binding, percent of control of the following compound: `CCOC(=O)c1nn(-c2ccccc2)c(=O)cc1SC(C)C`
61.6

Bench note: what GTP binding, percent of control did `Cc1cc(-c2n[nH]c(=S)n2/N=C/c2cc([N+](=O)[O-])ccc2Cl)n[nH]1` show?
54.8

Sample `Cc1ccc(Sc2c(C)nn(C(=O)C3CC3)c2C)cc1` — what was its GTP binding, percent of control?
78.5

What does the record list as GTP binding, percent of control for `Cc1cc(C)n(C(=O)CNC(=O)c2ccc3c(c2)OCCO3)n1` ?
61.7

Please look up its GTP binding, percent of control: `Cc1c(Cl)c([N+](=O)[O-])nn1Cc1ccc(C(=O)N/N=C\c2ccccn2)o1`
53

Please give the measured GTP binding, percent of control for this compound: `COc1cc2[nH]c(=S)nc(NC3CCCC3)c2cc1OC`
56.7

Which GTP binding, percent of control value is on record for `O=C(N/N=C/c1ccc([N+](=O)[O-])o1)c1cn(-c2ccccc2)nc1-c1ccc(Cl)cc1` ?
77

Item under review: `O=C(O)CCN1C(=O)/C(=C/c2ccc(-c3nc4ccccc4s3)o2)SC1=S` . Reported GTP binding, percent of control?
53.9

Please look up its GTP binding, percent of control: `Cc1cccc(NCc2ccc(O)c3ncccc23)c1C`
84.4

Need GTP binding, percent of control, item `O=c1[nH]c2ccc(S(=O)(=O)NCc3ccccc3)cc2[nH]1`
84.5

Need GTP binding, percent of control of `O=C(O)c1ccccc1NCc1ccc(Cl)cc1` , thanks.
95.6

Find the recorded GTP binding, percent of control belonging to `S=C(Nc1ccc(Oc2ccccc2)cc1)NC1CCCCC1` and report it.
62.2

# lookup: GTP binding, percent of control of `Clc1ccc(CN(Cc2ccc(Cl)cc2)c2nn[nH]n2)cc1`
85

State the recorded GTP binding, percent of control for this entry: `CCOc1ccc(-n2nc3c(=O)[nH]nc(C)c3c2C)cc1`
60.9

# input compound: CCOC(=O)C1=NN(c2ccc(C)cc2)CC1C(=O)OC (stereo not drawn) ; wanted: its GTP binding, percent of control
86.3

Any idea what GTP binding, percent of control was measured for `O=C(O)c1cc(C(=O)O)cc(-c2ccc(/C=c3/sc4nc5ccccc5n4c3=O)o2)c1` ?
72.3

Which measured GTP binding, percent of control value corresponds to `O=C(O)c1cc(N2N=C(C(F)(F)F)/C(=C/C=C/c3ccco3)C2=O)ccc1Cl` ?
69.8

Given `COc1cc(/C=C2\SC(=Nc3ccc(O)cc3)NC2=O)cc(OC)c1O` , state its recorded GTP binding, percent of control.
79.8

Please give the measured GTP binding, percent of control for this compound: `N#Cc1c(C(F)(F)F)cc(-c2ccc(Cl)cc2)[nH]c1=O`
66

---

Experiment: Nile Red efflux blockade in pump-expressing yeast – validation compound set, multiplex, phenotypic, pilot screen (AID 588506);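 note: Nile Red retained in cells so higher fluorescence means more efflux inhibition; 0 = negative control wells and 1 = enniatin B 25 µM full block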
Settings: S. cerevisiae pump-expressing triplex, Nile Red efflux flow cytometry; at 10 µM; stronger effect = higher value; the pumps come from Candida albicans
EXPERIMENTAL READOUT: efflux inhibition (fraction of control)
// return just the number, without any unit appended

A selection of reference data follows.
Which efflux inhibition (fraction of control) value is on record for `Cc1c(NC(=O)c2cccs2)cccc1[N+](=O)[O-]` ?
-0.01

For `COc1cc(NC(=S)NN2CCN(C)CC2)cc(OC)c1OC` , what is its reported efflux inhibition (fraction of control)?
-0.04

Could you share which efflux inhibition (fraction of control) value was measured for CC(CCCC(C)(C)O)NC(=O)c1ccc(OC2CCN(C(=O)C3CC3)CC2)cc1 (centres undefined) ?
0.08

Need efflux inhibition (fraction of control), item CCCC(CCC)C(=O)OC1C[C@H]2CC[C@@H](C1)[N+]2(C)C (some centres undefined)
0.27

Look up efflux inhibition (fraction of control) for this molecule: `CCc1cc(-c2[nH]ncc2-c2ccc3c(c2)OCO3)c(O)cc1O`
-0.34

Please give the measured efflux inhibition (fraction of control) for this molecule: O=C(NC(Nc1ccccn1)C(Cl)(Cl)Cl)c1ccccc1 (centres undefined)
0.25

Consider the molecule shown here: O=C(O)CCCN1C(=O)NC2NC(=O)NC21 (centres undefined) What is its recorded efflux inhibition (fraction of control)?
-0.04

Would you kindly share the measured efflux inhibition (fraction of control) for `CCCCC(=O)O[C@H]1CC[C@H]2[C@@H]3CCc4cc(O)ccc4[C@H]3CC[C@]12C` ?
-0.17

Further cases:
Dear colleague, I am looking for the recorded efflux inhibition (fraction of control) of the following molecule: Cc1ccc2c(c1)c1c3n2CCCN(Cc2ccccc2)C3CCC1 (centres undefined)
0.33
